Measured values drawn from patent US11046716B2 for this set.

- studyTarget: VIM-2 (Escherichia coli, UniProt Q5U7L7)
- Construct: made in house; host or cells: E. coli BL21(DE3)
- assayOverview: β-lactamase enzyme inhibition assay, VIM-2 (nitrocefin substrate)
- Assay type: biochemical
- conditionsUsed: Class B; nitrocefin substrate, 486 nm; read-out: VIM-2
pIC50: −log10 of the molar value.
Give pIC50 for every item shown.

// fetch pIC50 given entry `CC(C)(C(=O)N[C@H]1Cc2cccc(C(=O)O)c2OB1O)n1cc(CNCCN)nn1`
> 7.00

For the molecule `O=C(Cn1cc(C2CNC2)nn1)N[C@H]1Cc2cccc(C(=O)O)c2OB1O` , give its reported pIC50.
6.00 to 7.00

Kindly indicate its recorded pIC50. Item: `CCn1nnnc1CC(=O)N[C@H]1Cc2cccc(C(=O)O)c2OB1O`
6.00 to 7.00

Using the record for `NCc1nnnn1CC(=O)N[C@H]1Cc2cccc(C(=O)O)c2OB1O` , state its measured pIC50.
> 7.00

Give the reported pIC50 for this molecule. `NCCn1cnc(CC(=O)N[C@H]2Cc3cccc(C(=O)O)c3OB2O)n1`
5.00 to 6.00

Tell me pIC50 reported for `NCCn1cnc(C(=O)N[C@H]2Cc3cccc(C(=O)O)c3OB2O)c1`
6.00 to 7.00

Output measured pIC50 for this item: `O=C(Cn1cc(-c2ccsc2)nn1)N[C@H]1Cc2cccc(C(=O)O)c2OB1O`
6.00 to 7.00

# return recorded pIC50 for input `NOCC(=O)NCc1cn(CC(=O)N[C@H]2Cc3cccc(C(=O)O)c3OB2O)nn1`
6.00 to 7.00

Report pIC50, nothing else, for this molecule: `NCCn1ncnc1CC(=O)N[C@H]1Cc2cccc(C(=O)O)c2OB1O`
6.00 to 7.00

Tell me pIC50 reported for `O=C(Cn1nnc(CO)c1CO)N[C@H]1Cc2cccc(C(=O)O)c2OB1O`
5.00 to 6.00

Give pIC50 for `CN(C)Cc1nnn(CC(=O)N[C@H]2Cc3cccc(C(=O)O)c3OB2O)c1CN(C)C`
6.00 to 7.00

Please report pIC50 for the following molecule: `NCCOCc1cn(CC(=O)N[C@H]2Cc3cccc(C(=O)O)c3OB2O)nn1`
6.00 to 7.00

Query pIC50 for `NC1CCN(C(=O)c2cn(CC(=O)N[C@H]3Cc4cccc(C(=O)O)c4OB3O)nn2)CC1`
6.00 to 7.00

Tell me pIC50 reported for `O=C(Cn1nnc(C(=O)O)c1C(=O)O)N[C@H]1Cc2cccc(C(=O)O)c2OB1O`
5.00 to 6.00

Supply measured pIC50 of `CC(C)(C(=O)N[C@H]1Cc2cccc(C(=O)O)c2OB1O)n1cc(CNC(=N)N)nn1` in your reply.
> 7.00

Find the measured pIC50 of `COc1c(C[C@H](NC(=O)Cn2cc(CN)nn2)B(O)O)cccc1C(=O)O` and report it.
6.00 to 7.00

Could you please provide reported pIC50 for `O=C(Cc1nnnn1CCF)N[C@H]1Cc2cccc(C(=O)O)c2OB1O` ? Thanks!
6.00 to 7.00

Tell me its pIC50 given `O=C(Cn1cc(C(=O)NC2CNC2)nn1)N[C@H]1Cc2cccc(C(=O)O)c2OB1O` as the entry.
> 7.00

###

- studyTarget: SHV-5 (Klebsiella pneumoniae, UniProt P0A3M1)
- Sequence (P0A3M1 22-286): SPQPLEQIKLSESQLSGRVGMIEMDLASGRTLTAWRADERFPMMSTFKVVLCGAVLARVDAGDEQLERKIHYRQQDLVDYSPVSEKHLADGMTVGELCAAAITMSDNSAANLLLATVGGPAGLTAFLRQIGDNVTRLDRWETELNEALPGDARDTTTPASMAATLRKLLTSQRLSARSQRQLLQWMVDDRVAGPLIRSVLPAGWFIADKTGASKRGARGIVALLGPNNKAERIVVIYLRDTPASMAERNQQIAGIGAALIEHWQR
- assayOverview: β-lactamase enzyme inhibition assay, SHV-5 (cefotaxime substrate)
propertyName: IC50

Give the value of IC50 reported for the following: `CC(C)NCCn1nnnc1CC(=O)N[C@H]1Cc2cccc(C(=O)O)c2OB1O`
< 0.1 µM

Give IC50 for the following molecule: `NCCNC(=O)c1cn(CC(=O)N[C@H]2Cc3cccc(C(=O)O)c3OB2O)nn1`
< 0.1 µM

Please give the documented IC50 of `CSCC[C@@H](C(=O)N[C@H]1Cc2cccc(C(=O)O)c2OB1O)n1cc(CN)nn1`
0.1 to 1 µM

Give IC50 for the following molecule: `N=C(N)NCc1nc(CC(=O)N[C@H]2Cc3cccc(C(=O)O)c3OB2O)cs1`
< 0.1 µM

Give recorded IC50. N=C(N)NCC(O)Cc1cn(CC(=O)N[C@H]2Cc3cccc(C(=O)O)c3OB2O)nn1 (some centres unmarked)
< 0.1 µM

Look up IC50 of `NCCc1cn(CC(=O)N[C@H]2Cc3cccc(C(=O)O)c3OB2O)nn1` and report it.
0.1 to 1 µM

Supply measured IC50 of `O=C(Cc1nnnn1CCF)N[C@H]1Cc2cccc(C(=O)O)c2OB1O` in your reply.
< 0.1 µM

Assign IC50 to the following record: `CNCCNC(=O)c1cn(CC(=O)N[C@H]2Cc3cccc(C(=O)O)c3OB2O)nn1`
0.1 to 1 µM

###

Record form. Attribute: IC50. Fill in for each entry.
- studyTarget: KPC-2 (Klebsiella pneumoniae, UniProt Q9F663)
- Construct: made in house; host or cells: E. coli BL21(DE3)
- Sequence (Q9F663 25-293, looked up): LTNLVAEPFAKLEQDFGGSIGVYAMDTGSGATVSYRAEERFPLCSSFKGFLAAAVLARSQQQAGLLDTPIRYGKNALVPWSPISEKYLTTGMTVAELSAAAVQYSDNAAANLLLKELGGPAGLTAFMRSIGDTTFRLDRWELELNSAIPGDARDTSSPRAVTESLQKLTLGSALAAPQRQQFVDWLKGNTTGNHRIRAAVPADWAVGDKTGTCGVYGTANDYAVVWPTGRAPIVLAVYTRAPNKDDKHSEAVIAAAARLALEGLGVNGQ
- assayOverview: β-lactamase enzyme inhibition assay, KPC-2 (imipenem substrate)
- Assay type: biochemical
- conditionsUsed: Class A; imipenem substrate, 300 nm; read-out: KPC-2

Return the recorded IC50 value; entry: `NCCn1nnc(CC(=O)N[C@H]2Cc3cccc(C(=O)O)c3OB2O)n1`
< 100 nM

Answer with the recorded IC50 of `NCCc1cn(CC(=O)N[C@H]2Cc3cccc(C(=O)O)c3OB2O)nn1` only.
< 100 nM

Hello, please tell me recorded IC50 for this one: `O=C(Cn1cc(C(=O)NC2CCNCC2)nn1)N[C@H]1Cc2cccc(C(=O)O)c2OB1O`
100 to 1000 nM

Tell us which IC50 value is on record for `NCc1ccc(-c2cn(CC(=O)N[C@H]3Cc4cccc(C(=O)O)c4OB3O)nn2)cn1`
100 to 1000 nM

Query IC50 for `CN(C)CCn1nnnc1CC(=O)N[C@H]1Cc2cccc(C(=O)O)c2OB1O`
< 100 nM

Could you please provide reported IC50 for `NCCn1cnc(C(=O)N[C@H]2Cc3cccc(C(=O)O)c3OB2O)c1` ? Thanks!
< 100 nM

Output measured IC50 for this item: `N=C(N)NCCn1nnc(CC(=O)N[C@H]2Cc3cccc(C(=O)O)c3OB2O)n1`
< 100 nM

Return IC50 (reported value) for this compound: `Nc1cc(-c2cn(CC(=O)N[C@H]3Cc4cccc(C(=O)O)c4OB3O)nn2)ccn1`
< 100 nM

###

- studyTarget: SHV-5 (Klebsiella pneumoniae, UniProt P0A3M1)
- assayOverview: β-lactamase enzyme inhibition assay, SHV-5 (cefotaxime substrate)
pIC50: −log10 of the molar value.
Please provide measured pIC50 for the entries that follow.

Annotate the molecule O=C(Cn1cc(C(=O)NC2CNC2)nn1)N[C@H]1Cc2cccc(C(=O)O)c2OB1O [Example 88] with its measured pIC50.
6.00 to 7.00

Report pIC50 for Nc1cc(-c2cn(CC(=O)N[C@H]3Cc4cccc(C(=O)O)c4OB3O)nn2)ccn1 [Example 62]
> 7.00

Please list pIC50 recorded for the molecule O=C(Cn1cc(CCO)nn1)N[C@H]1Cc2cccc(C(=O)O)c2OB1O [Example 5]
> 7.00

Name the recorded pIC50 of the item CC(C)(C(=O)N[C@H]1Cc2cccc(C(=O)O)c2OB1O)n1cc(CNC(=N)N)nn1 [Example 39] in your answer.
> 7.00

Supply measured pIC50 of NCCn1nnnc1CC(=O)N[C@H]1Cc2cccc(C(=O)O)c2OB1O [Example 41] in your reply.
> 7.00

Give a short answer stating reported pIC50 for Nc1n[nH]c2ncc(-c3cn(CC(=O)N[C@H]4Cc5cccc(C(=O)O)c5OB4O)nn3)cc12 [Example 36] .
> 7.00

Name the recorded pIC50 of the molecule listed here: Nc1ccc(-c2cn(CC(=O)N[C@H]3Cc4cccc(C(=O)O)c4OB3O)nn2)cn1 [Example 74]
> 7.00

Item O=C(Cc1nnn[nH]1)N[C@H]1Cc2cccc(C(=O)O)c2OB1O [Example 40] : provide pIC50
> 7.00

###

- studyTarget: KPC-2 (Klebsiella pneumoniae)
- Construct: made in house; host or cells: E. coli BL21(DE3)
- assayOverview: β-lactamase enzyme inhibition assay, KPC-2 (imipenem substrate)
- Type: biochemical
- conditionsUsed: Class A; imipenem substrate, 300 nm; read-out: KPC-2
Kindly state IC50 for each of the entries shown.

Respond only with IC50 recorded for `NCc1nnn(CC(=O)N[C@H]2Cc3cccc(C(=O)O)c3OB2O)c1I`
< 100 nM

Hello, please tell me recorded IC50 for this one: `CC(C)NCc1cn(CC(=O)N[C@H]2Cc3cccc(C(=O)O)c3OB2O)nn1`
100 to 1000 nM

Specify IC50 for `NCCCC[C@@H](C(=O)N[C@H]1Cc2cccc(C(=O)O)c2OB1O)n1cc(CN)nn1` and stop.
100 to 1000 nM

Query IC50 for `NCc1nnc(CC(=O)N[C@H]2Cc3cccc(C(=O)O)c3OB2O)s1`
< 100 nM

Let me know recorded IC50 for `NCC#Cc1c(CN)nnn1CC(=O)N[C@H]1Cc2cccc(C(=O)O)c2OB1O` , thanks.
100 to 1000 nM

Specify measured IC50 for `N[C@H]1CCN(C(=O)c2cn(CC(=O)N[C@H]3Cc4cccc(C(=O)O)c4OB3O)nn2)C1` .
< 100 nM

Give the reported IC50 for this compound. `O=C(Cc1nnn(CC2CCNCC2)n1)N[C@H]1Cc2cccc(C(=O)O)c2OB1O`
< 100 nM

Give the value of IC50 reported for the following: `CC(C)(C(=O)N[C@H]1Cc2cccc(C(=O)O)c2OB1O)n1cc(CN)nn1`
< 100 nM
